This section presents compounds with their documented Minimum inhibitory concentration values.
- Test system: E. faecium A2373
- Procedure details: MIC of antibiotics with or without PAG/AOAA
- Type: cell-based
- Conditions: in the presence of 0.5 mM PAG + 0.05 mM AOAA

Smiles: C[C@@H](O)[C@H]1C(=O)N2C(C(=O)O)=C(S[C@@H]3CN[C@H](C(=O)N(C)C)C3)[C@H](C)[C@H]12
Relational operator: >
Minimum inhibitory concentration / µg/mL: 64

Smiles: CCCCCCCCCC(=O)N[C@@H](Cc1c[nH]c2ccccc12)C(=O)N[C@H](CC(N)=O)C(=O)N[C@@H](CC(=O)O)C(=O)N[C@@H]1C(=O)NCC(=O)N[C@@H](CCCN)C(=O)N[C@@H](CC(=O)O)C(=O)N[C@H](C)C(=O)N[C@@H](CC(=O)O)C(=O)NCC(=O)N[C@H](CO)C(=O)N[C@@H]([C@H](C)CC(=O)O)C(=O)N[C@@H](CC(=O)c2ccccc2N)C(=O)O[C@@H]1C
Relational operator: =
Minimum inhibitory concentration / µg/mL: 4

Smiles: CC(=O)NC[C@H]1CN(c2ccc(N3CCOCC3)c(F)c2)C(=O)O1
Relational operator: =
Minimum inhibitory concentration / µg/mL: 4
